B1: CPEB3 Ribozyme (parent)
chain: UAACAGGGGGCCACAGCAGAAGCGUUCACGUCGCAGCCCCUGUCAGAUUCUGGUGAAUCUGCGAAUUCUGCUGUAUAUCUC

variants of: B1; test: self-cleavage, relative activity (ratio to wild type); higher = more cleavage; in vitro, sequencing
Satisfied means recorded self-cleavage is 0.4 or above; Not satisfied means it is below 0.4.

{"columns": ["mutant", "label.value"],
 "data": [
  ["C23U A57U", "Not satisfied"],
  ["G9U C37U", "Not satisfied"],
  ["U41C U74C", "Satisfied"],
  ["A2G U25C", "Satisfied"],
  ["C14G U66C", "Not satisfied"],
  ["C17U U76C", "Satisfied"],
  ["C23A U67A", "Not satisfied"],
  ["G9A U66A", "Not satisfied"],
  ["A5G A21G", "Satisfied"],
  ["U26A C32A", "Not satisfied"],
  ["A15U U43G", "Not satisfied"],
  ["U49A", "Satisfied"],
  ["A47G U51A", "Satisfied"],
  ["A56U U69A", "Not satisfied"],
  ["A3G G10A", "Satisfied"],
  ["A5G C59A", "Not satisfied"],
  ["G24C A47G", "Satisfied"],
  ["A28G U43A", "Satisfied"],
  ["A20U U54C", "Not satisfied"],
  ["A5G A77G", "Satisfied"]
]}
